# PROCEDURE TEXT: ATG_CMV_CIS: Attagene CIS-FACTORIAL HepG2 Assay for human CMV (Internal Marker) (AID 2282928);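 note: endpoint acts as a background internal control marker rather than a target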
# RECORDED CONDITIONS: HepG2 CMV promoter reporter, transcription factor profiling; actives raise or lower the signal
# Description: ATG_CIS is a cell-based, multiplexed-readout assay that uses HepG2, a human liver cell line, with measurements taken at 24 hours after chemical dosing in a 24-well plate.ATG_CMV_CIS is one of 52 assay component(s) measured or calculated from the ATG_CIS assay. […] This assay endpoint, ATG_CMV_CIS, was analyzed with bidirectional fitting relative to DMSO as the negative control and baseline of activity. […]
Activity calls are given as the source filed them. Rule for the calls: active = hit-call score of the fitted dose curve at least 0.9, where 1 is the maximum; inactive = score below 0.9.
Outcomes: Y for active, N for inactive

COMPOUND	CLASS ASSIGNMENT
[Cl][In]([Cl])[Cl]	N
CC1(C)[C@H]2CC[C@]1(C)C(=O)C2	N
OCCc1ccncc1	N
COc1ccc2nc(N)sc2c1	N
CC(C)C(=O)C(C)C	N
Cc1cccc(C(=O)O)c1	N
CCCCCCCCCCCCCOP(=O)(O)O	N
CC(C)(C)c1ccc(N)cc1	N
COc1cc(NC(=O)CC(C)=O)c(OC)cc1Cl	N
COC=O	N
O=C1CCCN1CCO	N
O=S(=O)(O)c1ccccc1C=Cc1ccc(-c2ccc(C=Cc3ccccc3S(=O)(=O)O)cc2)cc1	N
c1c[nH]cn1	N
O=C(C=Cc1ccccc1)OCc1ccccc1	N
CCOc1ccc(N)c([N+](=O)[O-])c1	N
C=CCOc1c(Br)cc(Br)cc1Br	Y
CCN(Cc1cccc(S(=O)(=O)O)c1)c1ccc(C(=C2C=CC(=[N+](CC)Cc3cccc(S(=O)(=O)[O-])c3)C=C2)c2ccccc2)cc1	N
CCC(C)(C)C1CCCCC1OC(C)=O (stereo unspecified)	Y
CCCCCCCCCCCCCCCC[n+]1ccccc1	Y
CC(C)c1ccc2cc(C(C)C)ccc2c1	Y
O=c1[nH]c(=O)c2[nH]c(=O)[nH]c2[nH]1	N

###

# Read-out: Vascular cell adhesion molecule 1 (VCAM1), VCAM1 (gene 7412)
# PROCEDURE TEXT: BSK_CASM3C_VCAM1: BioMAP Diversity Plus: CASM3C Assay for Vascular cell adhesion molecule 1 (VCAM1) Biomarker Activity (AID 2283055);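 note: VCAM-1 protein level quantified by ELISA on the cells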
# RECORDED CONDITIONS: primary human coronary artery smooth muscle cells; actives raise or lower the signal
The source made the active and inactive calls. Rule for the calls: active = hit-call score of the fitted dose curve at least 0.9, where 1 is the maximum; inactive = score below 0.9.
Outcomes: Y for active, N for inactive

ENTRY SMILES	CLASS ASSIGNMENT
c1ccc(-c2ccccn2)nc1	N
C=CC=CC=CCCCCC	Y
O=C1CCCN1CCO	N
CO[Si](OC)(OC)c1ccccc1	N
CCCCC/C=C\C/C=C\CCCCCCCC(=O)OC	Y

###

# PROCEDURE TEXT: ATG_NRF2_ARE_CIS: Attagene CIS-FACTORIAL HepG2 Assay for human Nuclear Factor Erythroid 2 Related Factor 2 (NFR2) response to Antioxidant Response Elements (ARE) (AID 2282992)
# RECORDED CONDITIONS: HepG2 Attagene ARE/NRF2 reporter, transcription factor activity; actives raise or lower the signal
The source made the active and inactive calls. The calls were made as follows: active = hit-call score of the fitted dose curve at least 0.9, where 1 is the maximum; inactive = score below 0.9.
Outcomes: 1 (active), 0 (inactive)

MOLECULE	CLASS ASSIGNMENT
NCCCN1CCN(CCCN)CC1	1
CCCCCCCOC(=O)CCC	0
CC(C)C1=CC2=CC[C@@H]3[C@](C)(CCC[C@@]3(C)C(=O)O)[C@H]2CC1	1
CN(C)CCCN(C)C	0
CCCCCCCCCCCCCCCCCC#N	0
CCCCCCCCCCCCCCCC[n+]1ccccc1	0
C1=CCCC1	0
Cc1cccc(C(=O)O)c1	0
COCC(C)N (stereo not drawn)	0
CCCCCCC1(C)CCC(=O)O1 (stereo not drawn)	0
CC(=O)OC(C)C	0
NC(=O)N=NC(N)=O	0
CCOc1ccc(N)c([N+](=O)[O-])c1	0
CCCCCCOc1cc(C)c(O)c(C)c1C	1
Cc1cc(C)c(C)c(C)c1	0
Oc1ccc(Cl)cc1Cc1cc(Cl)ccc1O	1
NC(=O)c1ccccc1O	0
OC1CCCC1	0
